Field: inhibition at 10 µM. Provide a value for each of the compounds that follow.
Target: His-hMAGL (recombinant polyhistidine tagged human MAGL protein) (Homo sapiens, UniProt Q99685)
Construct: made in house; host or cells: E. coli BL21(DE3)
Sequence (Q99685 1-303): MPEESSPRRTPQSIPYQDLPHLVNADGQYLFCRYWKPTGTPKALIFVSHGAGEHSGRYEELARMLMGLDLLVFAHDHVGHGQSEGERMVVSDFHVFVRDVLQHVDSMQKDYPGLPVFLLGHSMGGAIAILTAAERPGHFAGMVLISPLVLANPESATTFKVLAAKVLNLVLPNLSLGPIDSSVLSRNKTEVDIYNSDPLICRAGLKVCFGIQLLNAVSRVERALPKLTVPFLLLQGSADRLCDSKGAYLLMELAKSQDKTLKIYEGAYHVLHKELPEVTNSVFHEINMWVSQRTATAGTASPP
Assay: Measurement of MAGL inhibitory activity (arachidonic acid production from 2-arachidonylglycerol, RapidFire-mass spectrometry)
Assay type: biochemical
Settings: test compound 10 μM; MAGL inhibitory rate
Form entry: value (%) — number only.

Data request: Endpoint output: inhibition at 10 µM of O=C1NC2(CO1)CN(C(=O)O[C@H]1C[C@@H](COc3ccc(C(F)(F)F)cc3Cl)C1)C2 [Example 20] . Value?
Data returned: 100

Data request: Request the reported inhibition at 10 µM associated with C[C@]1(OC(=O)N2CC3(COC(=O)N3)C2)C[C@H](Oc2c(F)cc(F)cc2F)C1 [Example 61]
Data returned: 100

Data request: Tell me the measured inhibition at 10 µM of Cc1ccc(COC[C@H]2C[C@@H](OC(=O)N3CC4(COC(=O)N4)C3)C2)cc1Cl [Example 28] , please.
Data returned: 100

Data request: Quick one: inhibition at 10 µM for O=C1NC2(CO1)CN(C(=O)O[C@H]1C[C@@H](OCc3ccc(F)c(F)c3F)C1)C2 [Example 6] ?
Data returned: 101
